I'd appreciate it if you could supply pIC50 values for the items below.
biological target: T1, soluble human FcRn (shFcRn) (human, UniProt P55899 24-297; P61769 21-119); assay: IgG competition ELISA
T1 construct: Biotinylated for the ELISA, amine-coupled to a CM5 chip for SPR; also called biotinylated shFcRn
T1 sequence (P55899 24-297 limits assumed, chain 1 of 2): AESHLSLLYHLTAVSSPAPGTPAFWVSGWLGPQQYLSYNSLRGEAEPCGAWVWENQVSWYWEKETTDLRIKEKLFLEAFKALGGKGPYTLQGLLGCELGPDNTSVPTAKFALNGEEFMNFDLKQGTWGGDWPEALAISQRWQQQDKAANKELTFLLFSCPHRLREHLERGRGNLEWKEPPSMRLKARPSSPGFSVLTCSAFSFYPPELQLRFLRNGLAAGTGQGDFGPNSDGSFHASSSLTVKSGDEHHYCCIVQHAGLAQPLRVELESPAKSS
T1 sequence (P61769 21-119 limits assumed, chain 2 of 2): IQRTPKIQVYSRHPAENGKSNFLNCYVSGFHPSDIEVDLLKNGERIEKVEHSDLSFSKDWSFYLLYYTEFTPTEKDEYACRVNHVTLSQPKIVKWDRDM
Bridge positions count the residues as written; N and C are the ends. Square brackets hold non-standard residues; d marks the D form. Ends that are not written are not given here. Pen = CC(C)(S)[C@H](N)C(=O)O
Give bare numbers, as −log10 of the molar value.

Sample answers from the record:
[
  {
    "binder": "QRF[Pen]TGHF[dP]GLYPCNGP-NH2 (disulfide 4-14; N-terminus assumed; SMILES CC(C)C[C@@H]1NC(=O)CNC(=O)[C@H]2CCCN2C(=O)[C@H](Cc2ccccc2)NC(=O)[C@H](Cc2c[nH]cn2)NC(=O)CNC(=O)[C@H]([C@@H](C)O)NC(=O)[C@@H](NC(=O)[C@H](Cc2ccccc2)NC(=O)[C@H](CCCNC(=N)N)NC(=O)[C@@H](N)CCC(N)=O)C(C)(C)SSC[C@@H](C(=O)N[C@@H](CC(N)=O)C(=O)NCC(=O)N2CCC[C@H]2C(N)=O)NC(=O)[C@@H]2CCCN2C(=O)[C@H](Cc2ccc(O)cc2)NC1=O) [Peptide No. 48]",
    "pIC50": 5.30
  },
  {
    "binder": "QRFCTGHFGXLYPCNGP (Pen 4; Aib (aminoisobutyric acid) 10; disulfide 4-14; C-terminal amide) [Peptide No. 46]",
    "pIC50": 5.62
  }
]

From here, focus on the item given below.
// query Recorded pIC50 for QRF[Pen]TGHFGGLYPCNGP-NH2 (disulfide 4-14; N-terminus assumed; SMILES CC(C)C[C@@H]1NC(=O)CNC(=O)CNC(=O)[C@H](Cc2ccccc2)NC(=O)[C@H](Cc2c[nH]cn2)NC(=O)CNC(=O)[C@H]([C@@H](C)O)NC(=O)[C@@H](NC(=O)[C@H](Cc2ccccc2)NC(=O)[C@H](CCCNC(=N)N)NC(=O)[C@@H](N)CCC(N)=O)C(C)(C)SSC[C@@H](C(=O)N[C@@H](CC(N)=O)C(=O)NCC(=O)N2CCC[C@H]2C(N)=O)NC(=O)[C@@H]2CCCN2C(=O)[C@H](Cc2ccc(O)cc2)NC1=O) [Peptide No. 32] , please?
// result 5.70

These measurements were taken from patent US20110059889A1.
